test system: Pseudomonas aeruginosa 1973E; test: MIC by broth microdilution (NCCLS M7-A5); settings: antibiotic alone
Measurement Kind: MIC of antibiotic (µg/mL)

Molecule	Tgt	MIC of antibiotic / µg/mL
CC1(C)C(NC(=O)C(=NOCc2cc(=O)c(O)cn2O)c2csc(N)n2)C(=O)N1OCC(=O)O (centres unmarked)	Pseudomonas aeruginosa 1973E	16

1 = NC(=O)OCC1C(NC(=O)C(=NOCc2cc(=O)c(O)cn2O)c2csc(N)n2)C(=O)N1OS(=O)(=O)O (centres unmarked)
2 = C[C@H](ON1C(=O)[C@@H](NC(=O)/C(=N\OCc2cc(=O)c(O)cn2O)c2csc(N)n2)[C@@H]1C)C(=O)O
3 = NC(=O)OCC1C(NC(=O)C(=NOCc2cc(=O)c(O)cn2O)c2csc(N)n2)C(=O)N1OCC(=O)O (centres unmarked)
**Q:** List items by MIC of antibiotic in falling order. Write out the labels following the order that was asked for.
**A:** 1, 2, 3

1 = C[C@H]1[C@H](NC(=O)/C(=N\OCc2cc(=O)c(O)cn2O)c2nccc(N)n2)C(=O)N1S(=O)(=O)O
2 = C[C@H]1[C@H](NC(=O)/C(=N\OCc2cc(=O)c(O)cn2O)c2csc(N)n2)C(=O)N1OCC(=O)O
3 = CC1(C)[C@H](NC(=O)/C(=N\OCc2cc(=O)c(O)cn2O)c2csc(N)n2)C(=O)N1OS(=O)(=O)O
**Q:** hey, can you rank those molecules up there by MIC of antibiotic? biggest number first please Note for the reader: the ranking is given by listing the labels in the order requested.
**A:** 3, 1, 2

----------
Overview of recorded MIC of antibiotic for various molecules
tested on: Pseudomonas aeruginosa MK1184; assay: MIC by broth microdilution (NCCLS M7-A5); conditions: + 206 + clavulanate, 4 mg/L each

In the examples that follow, each entry is paired with its recorded MIC of antibiotic.
Molecule	Tgt	MIC of antibiotic
CC1C(NC(=O)C(=NOCc2cc(=O)c(O)cn2O)c2nsc(N)n2)C(=O)N1S(=O)(=O)O (stereo not shown)	Pseudomonas aeruginosa MK1184	16 µg/mL
CC1C(NC(=O)C(=NOCc2cc(=O)c(O)cn2O)c2cccc(N)n2)C(=O)N1S(=O)(=O)O (stereo not shown)	Pseudomonas aeruginosa MK1184	>32 µg/mL

**Q:** Fill in reported MIC of antibiotic for this entry: C[C@H]1[C@H](NC(=O)/C(=N\OCc2cc(=O)c(O)cn2C)c2csc(N)n2)C(=O)N1S(=O)(=O)O
**A:** >32 µg/mL

**Q:** Give the value of MIC of antibiotic reported for the following: CC1C(NC(=O)C(=NOCc2cc(=O)c(O)cn2O)c2csc(N)n2)C(=O)N1S(=O)(=O)O (stereo not shown)
**A:** >32 µg/mL

----------
test system: Acinetobacter sp. J2; assay: MIC by broth microdilution (NCCLS M7-A5); conditions: Acinetobacter baumannii J2; + 324 + clavulanate, 4 mg/L each
Measurement Kind: MIC of antibiotic (µg/mL)

Compound	Tgt	Quantity Unit	MIC of antibiotic
CC1C(NC(=O)C(=NOCc2cc(=O)c(O)cn2O)c2csc(N)n2)C(=O)N1S(=O)(=O)O (stereo not drawn)	Acinetobacter sp. J2	µg/mL	32

P = C[C@H](ON1C(=O)[C@@H](NC(=O)/C(=N\OCc2cc(=O)c(O)cn2O)c2csc(N)n2)[C@@H]1C)C(=O)O
Q = CC1(C)C(NC(=O)C(=NOCc2cc(=O)c(O)cn2O)c2csc(N)n2)C(=O)N1OCC(=O)O (stereo not drawn)
R = CC1(C)C(NC(=O)C(=NOCc2cc(=O)c(O)cn2O)c2nsc(N)n2)C(=O)N1OS(=O)(=O)O (stereo not drawn)
**Q:** With regard to MIC of antibiotic, arrange the entries in ascending order, please. Note for the reader: the ranking is given by listing the labels in the order requested.
**A:** R, P, Q

----------
test system: Pseudomonas aeruginosa MK1184; assay: MIC by broth microdilution (NCCLS M7-A5); conditions: + 102 + sulbactam, 4 mg/L each
Measurement Kind: MIC of antibiotic (µg/mL)

Compound	MIC of antibiotic [µg/mL]
CC1C(NC(=O)C(=NOCc2cc(=O)c(O)cn2O)c2csc(N)n2)C(=O)N1S(=O)(=O)O (stereo not shown)	32

1 = C[C@H]1[C@H](NC(=O)/C(=N\OCc2cc(=O)c(O)cn2O)c2nc(N)sc2Cl)C(=O)N1OS(=O)(=O)O
2 = C[C@H]1[C@H](NC(=O)/C(=N\OC(C)(C)C(=O)O)c2csc(N)n2)C(=O)N1S(=O)(=O)O [Aztreonam, aztreonam, reference compound]
3 = C[C@H]1[C@H](NC(=O)/C(=N\OCc2cc(=O)c(O)cn2O)c2nccc(N)n2)C(=O)N1S(=O)(=O)O
**Q:** Ascending by MIC of antibiotic, please. // rank by listing labels in the order requested
**A:** 1, 2, 3
(1: 4 µg/mL, 2: 16 µg/mL, 3: 32 µg/mL)

----------
system: Stenotrophomonas malthophilia 1AC736; experiment: MIC by broth microdilution (NCCLS M7-A5); conditions: Stenotrophomonas maltophilia 1AC736; + 102 + clavulanate, 4 mg/L each
Measurement Kind: MIC of antibiotic (µg/mL)

Answered examples (3):
Molecule	Tgt	Measurement Kind	Quantity Unit	Val
CC1C(NC(=O)C(=NOCc2cc(=O)c(O)cn2O)c2cccc(N)n2)C(=O)N1S(=O)(=O)O (stereo not shown)	Stenotrophomonas malthophilia 1AC736	MIC of antibiotic	µg/mL	0.25
NC(=O)OCC1C(NC(=O)C(=NOCc2cc(=O)c(O)cn2O)c2nc(N)sc2Cl)C(=O)N1OS(=O)(=O)O (stereo not shown)	Stenotrophomonas malthophilia 1AC736	MIC of antibiotic	µg/mL	1
CC1(C)C(NC(=O)C(=NOCc2cc(=O)c(O)cn2O)c2nsc(N)n2)C(=O)N1OS(=O)(=O)O (stereo not shown)	Stenotrophomonas malthophilia 1AC736	MIC of antibiotic	µg/mL	0.5

I = C[C@H]1[C@H](NC(=O)/C(=N\OCc2cc(=O)c(O)cn2O)c2nc(N)sc2Cl)C(=O)N1OS(=O)(=O)O
II = Nc1nc(C(=NOCc2cc(=O)c(O)cn2O)C(=O)NC2CN(S(=O)(=O)O)C2=O)cs1 (stereo not shown)
III = NC(=O)OCC1C(NC(=O)C(=NOCc2cc(=O)c(O)cn2O)c2csc(N)n2)C(=O)N1OS(=O)(=O)O (stereo not shown)
IV = CC1C(NC(=O)C(=NOCc2cc(=O)c(O)cn2O)c2noc(N)n2)C(=O)N1S(=O)(=O)O (stereo not shown)
**Q:** Hey, quick one: sort these by MIC of antibiotic, largest value first please. List the labels, following the order given in the request.
**A:** IV, III, I, II

----------
system: Pseudomonas aeruginosa 1973E; experiment: MIC by broth microdilution (NCCLS M7-A5); details: antibiotic alone
Measurement Kind: MIC of antibiotic (µg/mL)

Some solved entries appear below for comparison.
Compound	Quantity Unit	MIC of antibiotic
NC(=O)OCC1C(NC(=O)C(=NOCc2cc(=O)c(O)cn2O)c2nc(N)sc2Cl)C(=O)N1OS(=O)(=O)O (stereo not shown) [Compound 47]	µg/mL	8
CC1C(NC(=O)C(=NOCc2cc(=O)c(O)cn2O)c2cccc(N)n2)C(=O)N1S(=O)(=O)O (stereo not shown) [Compound 20]	µg/mL	16
CC1C(NC(=O)C(=NOCc2cc(=O)c(O)cn2O)c2csc(N)n2)C(=O)N1S(=O)(=O)O (stereo not shown) [Compound 1]	µg/mL	16

a = CC1C(NC(=O)C(=NOCc2cc(=O)c(O)cn2O)c2nsc(N)n2)C(=O)N1S(=O)(=O)O (stereo not shown) [Compound 2]
b = C[C@H]1[C@H](NC(=O)/C(=N\OCc2cc(=O)c(O)cn2O)c2nc(N)sc2Cl)C(=O)N1OS(=O)(=O)O [Compound 29]
**Q:** Higher MIC of antibiotic: a or b ? Refer to your chosen entry by its label in the reply.
**A:** a
(a: 8 µg/mL, b: 4 µg/mL)

----------
tested on: Stenotrophomonas malthophilia 1AC736; experiment: MIC by broth microdilution (NCCLS M7-A5); details: Stenotrophomonas maltophilia 1AC736; antibiotic alone
Measurement Kind: MIC of antibiotic (µg/mL)

Sample records with MIC of antibiotic:
Compound	Quantity Unit	MIC of antibiotic
CC1C(NC(=O)C(=NOCc2cc(=O)c(O)cn2O)c2cccc(N)n2)C(=O)N1S(=O)(=O)O (stereo not shown)	µg/mL	4
C[C@H]1[C@H](NC(=O)/C(=N\OCc2cc(=O)c(O)cn2O)c2nc(N)sc2Cl)C(=O)N1OS(=O)(=O)O	µg/mL	1

I = C[C@H](ON1C(=O)[C@@H](NC(=O)/C(=N\OCc2cc(=O)c(O)cn2O)c2csc(N)n2)[C@@H]1C)C(=O)O
II = CC1C(NC(=O)C(=NOCc2cc(=O)c(O)cn2O)c2csc(NC=O)n2)C(=O)N1S(=O)(=O)O (stereo not shown)
III = CC1(C)C(NC(=O)C(=NOCc2cc(=O)c(O)cn2O)c2csc(N)n2)C(=O)N1OCC(=O)O (stereo not shown)
**Q:** Hey, can you sort those compounds up there by MIC of antibiotic, smallest first? The response must list the labels following the requested ordering.
**A:** I, III, II
